# Tested on: Oct4-luc
# measurement description: Oct4-luc reporter induction by OAC compounds
# Format: cell-based
assay metric: Oct4-luc fold Induction (fold)

Below: 6 compounds and their reported Oct4-luc fold Induction.
compound	Oct4-luc fold Induction [fold]
CCOc1cccc(C(=O)Nc2ccc3[nH]ncc3c2)c1 [Compound C14]	2.67
Cc1ccc(C(=O)Nc2ccc3[nH]cc(C#N)c3c2)cc1 [Compound C17]	1.1
Cc1nc2cc(NC(=O)c3ccc([N+](=O)[O-])cc3)ccc2[nH]1 [Compound C32]	1.3
O=C(Nc1ccc2[nH]ncc2c1)c1ccccc1Cl [Compound C23]	1.72
O=C(Nc1ccc2[nH]ncc2c1)c1cccc(Br)c1 [Compound C20]	1.48
COc1ccc(C(=O)Nc2ccc3[nH]ncc3c2)cc1OC [Compound C29]	1.13

A: CCOc1ccccc1C(=O)Nc1ccc2[nH]ncc2c1 [Compound C26]
B: O=C(Nc1cc2cc[nH]c2cn1)c1ccccc1 [Compound C1]
Exercise: Please tell me which of the two, A or B , has the higher reported Oct4-luc fold Induction value. Provide the label of your selected option as the answer.
Solution: B

P: O=C(Nc1ccc2[nH]ncc2c1)c1ccccc1F [Compound C22]
Q: Cc1ccc(C(=O)Nc2ccc3[nH]ncc3c2)cc1C [Compound C13]
R: CCOc1ccc(C(=O)Nc2ccc3[nH]ncc3c2)cc1 [Compound C9]
S: CCOc1ccc(C(=O)Nc2ccc3[nH]ncc3c2)cc1OCC [Compound C30]
T: O=C(Nc1ccc2[nH]ccc2c1)c1ccccc1 [Compound C2]
Exercise: // ranking: key=Oct4-luc fold Induction, reverse=True Form entry: ranked labels (order as requested).
Solution: R, T, Q, P, S
(R: 7.22 fold, T: 4.15 fold, Q: 2.78 fold, P: 1.5 fold, S: 1 fold)

1: CN1CCC(c2c[nH]c3ccc(NC(=O)c4ccc(F)cc4)cc23)CC1 [Compound C16]
2: O=C(Nc1ccc2[nH]ccc2c1)c1ccc2nonc2c1 [Compound C5]
3: COc1ccccc1C(=O)Nc1ccc2[nH]ncc2c1 [Compound C25]
Exercise: Arrange the 3 compounds by rising Oct4-luc fold Induction, starting with the smallest. Form entry: ranked labels (order as requested).
Solution: 1, 3, 2
(1: 1 fold, 3: 1.5 fold, 2: 2.87 fold)

1: O=C(Nc1ccc2[nH]ncc2c1)c1ccc(Cl)cc1Cl [Compound C12]
2: COc1cccc(C(=O)Nc2ccc3[nH]ncc3c2)c1 [Compound C15]
Exercise: I would appreciate it if you could say which entry, 1 or 2 , has the lower Oct4-luc fold Induction value. Provide the label of your selected option as the answer.
Solution: 2
